target: Caspase-3 (Homo sapiens, UniProt P42574); assay: Inhibition of recombinant human caspase-3 using Ac-DEVD-AMC as substrate preincubated for 10 mins followed by substrate addition measured after 60 mins by fluorometric assay
Sequence (P42574 29-175 limits assumed): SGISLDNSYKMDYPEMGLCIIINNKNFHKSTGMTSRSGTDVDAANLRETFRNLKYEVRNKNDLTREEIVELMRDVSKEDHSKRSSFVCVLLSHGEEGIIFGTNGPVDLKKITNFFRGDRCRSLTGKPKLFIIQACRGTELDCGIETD
Sequence (P42574 176-277 limits assumed): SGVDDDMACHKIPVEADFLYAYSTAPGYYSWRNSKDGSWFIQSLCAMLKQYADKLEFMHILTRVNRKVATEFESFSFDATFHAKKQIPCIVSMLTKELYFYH
pIC50: −log10 of the molar value. Where a SMILES comes first, the peptide text is derived from it. The star is where a group is joined. Cbz = O=C(OCc1ccccc1)*; CH2F = FC*
Quick list: pIC50 per entry.

Previously resolved entries follow.
**Q:** Recorded pIC50 for `C#CCN1C(=O)C(=O)c2cc(S(=O)(=O)N(C)Cc3ccc(F)cc3)ccc21` , please?
**A:** < 4.00

**Q:** Recorded pIC50 for COC(=O)C[C@H](NC(=O)[C@H](C)NC(=O)[C@@H](NC(=O)OCc1ccccc1)C(C)C)C(=O)CF (Cbz-Val-Ala-Asp(OMe)-CH2F) , please?
**A:** 4.40

**Q:** Recorded pIC50 for `C#CCN(C)[C@H](C)Cc1ccccc1` , please?
**A:** < 4.00

**Q:** Recorded pIC50 for `C#CCN(C)CCCOc1ccc(Cl)cc1Cl` , please?
**A:** < 4.00

**Q:** Recorded pIC50 for `C#CCN1C(=O)C(=O)c2ccccc21` , please?
**A:** < 4.00

Please find the next compound below.
**Q:** Recorded pIC50 for `O=C1Nc2ccccc2C1=O` , please?
**A:** < 4.00

---

Biological target: Amine oxidase [flavin-containing] A (Homo sapiens, UniProt P21397)
Sequence (P21397 whole entry): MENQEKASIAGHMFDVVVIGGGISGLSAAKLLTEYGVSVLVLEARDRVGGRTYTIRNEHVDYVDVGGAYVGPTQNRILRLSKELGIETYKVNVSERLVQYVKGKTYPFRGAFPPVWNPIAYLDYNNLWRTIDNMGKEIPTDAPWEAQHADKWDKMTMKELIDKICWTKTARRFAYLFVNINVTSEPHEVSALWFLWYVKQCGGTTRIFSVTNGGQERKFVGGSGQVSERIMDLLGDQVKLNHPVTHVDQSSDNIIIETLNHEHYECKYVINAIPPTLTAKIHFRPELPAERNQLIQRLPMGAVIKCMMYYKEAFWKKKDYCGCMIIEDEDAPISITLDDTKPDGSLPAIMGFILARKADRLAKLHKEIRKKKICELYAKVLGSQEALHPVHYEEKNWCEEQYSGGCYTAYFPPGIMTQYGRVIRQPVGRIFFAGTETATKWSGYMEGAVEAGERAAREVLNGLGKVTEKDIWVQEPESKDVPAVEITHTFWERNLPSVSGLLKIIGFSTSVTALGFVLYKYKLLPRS
Test: Inhibition of recombinant human MAOA using kynuramine as substrate assessed as decrease in formation of 4-hydroxyquinoline incubated for 20 mins by fluorescence assay
Quick list: pKi per entry.
In simple prose, pKi is minus the logarithm base ten of a concentration in moles per litre.

**Q:** Recorded pKi for `C#CCN1C(=O)C(=O)c2cc(S(=O)(=O)N(C)Cc3ccccc3F)ccc21` , please?
**A:** 5.61

Next:
**Q:** Recorded pKi for `C#CCN1C(=O)C(=O)c2cc(S(=O)(=O)N(C)Cc3cccc(F)c3)ccc21` , please?
**A:** 5.55

**Q:** Recorded pKi for `CN(Cc1cccc(F)c1)S(=O)(=O)c1ccc2c(c1)C(=O)C(=O)N2` , please?
**A:** 5.22
